# assay.target: hP2X3 (Homo sapiens)
# Sequence (P56373 1-397): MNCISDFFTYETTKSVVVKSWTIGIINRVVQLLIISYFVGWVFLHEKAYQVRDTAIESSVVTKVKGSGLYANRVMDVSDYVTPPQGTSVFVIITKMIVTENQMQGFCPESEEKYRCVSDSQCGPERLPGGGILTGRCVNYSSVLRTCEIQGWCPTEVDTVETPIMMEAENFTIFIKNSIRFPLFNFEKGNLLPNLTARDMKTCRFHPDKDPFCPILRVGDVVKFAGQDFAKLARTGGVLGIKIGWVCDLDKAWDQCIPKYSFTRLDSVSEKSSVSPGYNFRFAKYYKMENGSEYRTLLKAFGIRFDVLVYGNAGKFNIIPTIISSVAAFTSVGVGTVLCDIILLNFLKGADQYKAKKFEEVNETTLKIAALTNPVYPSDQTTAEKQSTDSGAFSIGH
# experimental.protocol: FLIPR intracellular calcium assay, hP2X3
# reported.conditions: human P2X3-HEK cells, agonist at EC75
pIC50: −log10 of the molar value.
value.type: pIC50

Some solved entries appear below for comparison.
[[record]]
compound = "CCC(C)n1ncc2nc(N3CCN(C(=N)N)CC3)nc(N[C@@H](c3cnc4ccccc4c3)C3CC3)c21 (stereo partly drawn)"
assay_target = "hP2X3 (Homo sapiens)"
endpoint_value = "7.00 to 9.00"

[[record]]
compound = "CC(=O)N1CCN(c2nc(NCc3cnc4ccccc4c3)c3c(cnn3C(C)C)n2)CC1"
assay_target = "hP2X3 (Homo sapiens)"
endpoint_value = "6.00 to 7.00"

[[record]]
compound = "CC(=O)N1CCN(c2nc(N[C@H](C)c3cnc4ccccc4c3)c3c(n2)c(Br)nn3C(C)C)CC1"
assay_target = "hP2X3 (Homo sapiens)"
endpoint_value = "7.00 to 9.00"

[[record]]
compound = "CC(=O)N1CCN(c2nc(NC(C)c3cnc4ccccc4c3)c3nn(C(C)C)c(C(N)=O)c3n2)CC1 (stereo not drawn)"
assay_target = "hP2X3 (Homo sapiens)"
endpoint_value = "6.00 to 7.00"


**Query** Reported pIC50, compound CCC(CC)n1ncc2nc(N3CCN(C(C)=O)CC3)nc(NC(C)c3ccc4sccc4c3)c21 (stereo not drawn) : ____
**Result** 7.00 to 9.00

**Query** Reported pIC50, compound CCC(C)n1ncc2nc(N3CCN(C(C)=O)CC3)nc(NC(C)c3ccc(-c4ccccc4)nc3)c21 (stereo not drawn) : ____
**Result** 7.00 to 9.00
